# System: 996289-038-R-J1-PDC complex spheroid viability
# experimental-protocol: Anticancer human tumor 996289-038-R-J1-PDC patient-derived colon adenocarcinoma cell line growth inhibition [CLK]
# cond: second compound 0.1 µM; first compound 0.0949 µM; hits give low values
viability, T/C by entry:
Unit % implied. Number only.

Take a look at these entries with their results.
- compound: "CC(C)CC(NC(=O)C(Cc1ccccc1)NC(=O)c1cnccn1)B(O)O (stereo not drawn) + CN1CCN(c2cc(C(=O)Nc3cc4cc(-c5cnn(C)c5)ccc4cn3)ccn2)CC1"
  u: "%"
  viability, T/C: 0.55
- compound: "C=CC(=O)Nc1cc(Nc2nccc(-c3cn(C)c4ccccc34)n2)c(OC)cc1N(C)CCN(C)C + CNC(=O)c1ccc(Nc2nc(OC3CCCC3)c3c(-c4ccc5nc(C)oc5c4)c[nH]c3n2)c(OC)c1"
  u: "%"
  viability, T/C: 110

Kindly consider the entry below.
Record request: viability, T/C value, item C=CC(=O)Nc1cc(Nc2nccc(-c3cn(C)c4ccccc34)n2)c(OC)cc1N(C)CCN(C)C + CN1CCN(c2cc(C(=O)Nc3cc4cc(-c5cnn(C)c5)ccc4cn3)ccn2)CC1
86

---

viability, T/C by entry:
# System: 996289-038-R-J1-PDC complex spheroid viability
# experimental-protocol: Anticancer human tumor 996289-038-R-J1-PDC cell line growth inhibition [CLK];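 note: spheroids exposed to the agents for 7 days before readout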
# cond: second compound 3.16 µM; first compound 0.316 µM; hits give low values
Unit % implied. Number only.

- compound: "Nc1ccn(C2OC(CO)C(O)C2(F)F)c(=O)n1 (stereo not given) + CN1CCN(c2cc(C(=O)Nc3cc4cc(-c5cnn(C)c5)ccc4cn3)ccn2)CC1"
  viability, T/C, %: 1.65
- compound: "CC(=O)O[C@H]1C(=O)[C@@]2(C)[C@H]([C@H](OC(=O)c3ccccc3)[C@]3(O)C[C@H](OC(=O)[C@H](O)[C@@H](NC(=O)c4ccccc4)c4ccccc4)C(C)=C1C3(C)C)[C@]1(OC(C)=O)CO[C@@H]1C[C@@H]2O + CN1CCN(c2cc(C(=O)Nc3cc4cc(-c5cnn(C)c5)ccc4cn3)ccn2)CC1"
  viability, T/C, %: 1.67

Record request: viability, T/C value, item COc1ccc([C@@H](O)c2cc(-c3ncnc4cc(N5CCOCC5)ccc34)c(F)cc2Cl)nn1 + CN1CCN(c2cc(C(=O)Nc3cc4cc(-c5cnn(C)c5)ccc4cn3)ccn2)CC1
1.09

Also CCN1CCN(Cc2ccc(Nc3ncc(F)c(-c4cc(F)c5nc(C)n(C(C)C)c5c4)n3)nc2)CC1 + CN1CCN(c2cc(C(=O)Nc3cc4cc(-c5cnn(C)c5)ccc4cn3)ccn2)CC1 , if possible.
1.2

Also C=C(F)C(=O)N1CCN(c2nc(OCC3CCCN3C)nc3c2CCN(c2cccc4cccc(Cl)c24)C3)CC1CC#N (stereo not given) + CN1CCN(c2cc(C(=O)Nc3cc4cc(-c5cnn(C)c5)ccc4cn3)ccn2)CC1 , if possible.
1.18

---

viability, T/C by entry:
# Tested on: 996289-038-R-J1-PDC complex spheroid viability
# experimental-protocol: Anticancer human tumor 996289-038-R-J1-PDC cell line growth inhibition [CLK];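 note: spheroids exposed to the agents for 7 days before readout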
# cond: second compound 0.0316 µM; first compound 0.1 µM; hits give low values
Unit % implied. Number only.

Take a look at these entries with their results.
- compound: "CC(Nc1ccc2c(c1)OCCn1cc(N3C(=O)OCC3C(F)F)nc1-2)C(N)=O (centres undefined) + CNC(=O)c1ccc(Nc2nc(OC3CCCC3)c3c(-c4ccc5nc(C)oc5c4)c[nH]c3n2)c(OC)c1"
  value-measured: 92.9
- compound: "C=C(F)C(=O)N1CCN(c2nc(OCC3CCCN3C)nc3c2CCN(c2cccc4cccc(Cl)c24)C3)CC1CC#N (centres undefined) + CN1CCN(c2cc(C(=O)Nc3cc4cc(-c5cnn(C)c5)ccc4cn3)ccn2)CC1"
  value-measured: 119
- compound: "CC(=O)O[C@H]1C(=O)[C@@]2(C)[C@H]([C@H](OC(=O)c3ccccc3)[C@]3(O)C[C@H](OC(=O)[C@H](O)[C@@H](NC(=O)c4ccccc4)c4ccccc4)C(C)=C1C3(C)C)[C@]1(OC(C)=O)CO[C@@H]1C[C@@H]2O + CNC(=O)c1ccc(Nc2nc(OC3CCCC3)c3c(-c4ccc5nc(C)oc5c4)c[nH]c3n2)c(OC)c1"
  value-measured: 103

Kindly consider the entry below.
Record request: viability, T/C value, item CCCS(=O)(=O)Nc1ccc(F)c(C(=O)c2c[nH]c3ncc(-c4ccc(Cl)cc4)cc23)c1F + CNC(=O)c1ccc(Nc2nc(OC3CCCC3)c3c(-c4ccc5nc(C)oc5c4)c[nH]c3n2)c(OC)c1
105
